Test: Toxicokinetics of the 7-day tox study
Assay type: in vivo, rats
Settings: male, rat, whole blood, po, 10 mg/kg, Day 7, 10 mg/kg oral, Male
Method: A 7-day non-GLP tox study was performed in rats. […] The following parameters and end points were evaluated in this study: clinical signs, body weights, body weight changes, food consumption, clinical pathology parameters (hematology, coagulation, clinical chemistry, and urinalysis), toxicokinetic parameters, gross necropsy findings, organ weights, and histopathologic examinations. Clinical signs and body weight changes in the TK animals were generally similar to the main toxicology phase animals. […]
QUANTITY MEASURED: Cmax (ng/mL)

* CN1CCN(c2nc(NCCN3CCOCC3)c3nc(Cl)c(NCCN4CCOCC4)nc3n2)CC1 | 181
